Molecular target: NAMPT enzyme (Homo sapiens (Human), UniProt P43490)
Sequence (P43490 whole entry, species assumed): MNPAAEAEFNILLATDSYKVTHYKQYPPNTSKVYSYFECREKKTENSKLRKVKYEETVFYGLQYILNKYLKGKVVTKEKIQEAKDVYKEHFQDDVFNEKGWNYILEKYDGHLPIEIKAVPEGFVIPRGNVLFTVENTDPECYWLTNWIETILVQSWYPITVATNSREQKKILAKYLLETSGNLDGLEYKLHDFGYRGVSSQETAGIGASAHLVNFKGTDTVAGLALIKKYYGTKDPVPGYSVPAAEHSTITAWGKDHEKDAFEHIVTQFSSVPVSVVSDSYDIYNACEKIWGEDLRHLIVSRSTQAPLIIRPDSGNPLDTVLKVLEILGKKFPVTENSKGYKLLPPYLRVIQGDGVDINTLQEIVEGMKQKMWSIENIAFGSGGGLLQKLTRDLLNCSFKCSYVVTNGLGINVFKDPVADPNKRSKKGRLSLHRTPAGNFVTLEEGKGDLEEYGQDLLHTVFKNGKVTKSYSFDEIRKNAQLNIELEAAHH
Experiment: Enzyme Assay and NMN Detection (NAMPT reaction, fluorescence detection of NMN)
Assay type: biochemical
Conditions: Table B-5; NAMPT activation, NMN formation
Measured Attribute: EC50

Below, each entry is followed by its recorded EC50 result.
O=C(NCc1cnco1)Nc1ccc(-c2cccc3[nH]cnc23)cc1 > 20000 nM
Cc1ccc2c(-c3ccc(NC(=O)NCc4cnco4)cc3)nn(C)c2c1 100 to 2000 nM
O=C(NCc1cnco1)Nc1ccc(Nc2ncc(-c3ccccc3)s2)cc1 100 to 2000 nM

Consider O=C(NCc1cnco1)Nc1ccc(NS(=O)(=O)Cc2ccc(Cl)cc2)cc1 . Its measured EC50 is < 100 nM

Measured EC50 of O=C(NCc1cnco1)Nc1ccc(NS(=O)(=O)Cc2ccccc2Cl)cc1 : < 100 nM

compound Cn1cc(S(=O)(=O)c2ccc(NC(=O)NCc3cnco3)cc2)cn1 , EC50 observed: 2000 to 5000 nM

Lab book: EC50 of N#Cc1ccc(S(=O)(=O)c2ccc(NC(=O)NCc3cnco3)cc2)cc1 noted as 100 to 2000 nM

EC50 in this record for O=C(NCc1cnco1)Nc1ccc(S(=O)(=O)C2CCCCC2)cc1 : 2000 to 5000 nM

Note to self: EC50 recorded for Cc1cccc2c(-c3ccc(NC(=O)NCc4cnco4)cc3)nn(C)c12 was 2000 to 5000 nM

// sample O=C(NCc1cnco1)Nc1ccc(S(=O)(=O)c2ccc(C(F)(F)F)cc2)cc1 , its EC50 was 100 to 2000 nM

Record O=C(NCc1cnco1)Nc1ccc(NS(=O)(=O)Cc2cccc(Cl)c2)cc1 . Reported EC50: < 100 nM

----------
Biological target: NAMPT enzyme (Homo sapiens (Human), UniProt P43490)
Experiment: Enzyme Assay and NMN Detection (NAMPT reaction, fluorescence detection of NMN)
Format: biochemical
Conditions: Table B-6; NAMPT activation, NMN formation
pEC50: −log10 of the molar value.
Quick list: pEC50 per entry.

O=C(NCc1ccncc1)Nc1ccc(S(=O)(=O)c2ncccn2)cc1 5.30 to 5.70
O=C(NCc1cn[nH]c1)Nc1ccc(S(=O)(=O)c2cccc(C(F)(F)F)c2)cc1 5.70 to 7.00
O=C(NCc1ccncc1)Nc1ccc(Nc2nc3ccccc3s2)cc1 4.70 to 5.30

Moving on to the next compound.
Entry O=C(NCc1ccncc1)Nc1ccc(S(=O)(=O)c2cn[nH]c2)cc1 , pEC50 reported as 5.70 to 7.00

----------
Molecular target: NAMPT enzyme (Homo sapiens (Human), UniProt P43490)
Assay: Enzyme Assay and NMN Detection (NAMPT reaction, fluorescence detection of NMN)
Assay type: biochemical
Details: Table B-1; NAMPT activation, NMN formation
Procedure: NAMPT reaction was performed in 50 mM HEPES, pH 7.5, containing 5 mM MgCl2, 0.1% Prionex, 0.005% Tween 20, and 1 mM TCEP at room temperature in Greiner 384-well black polypropylene plates. […] The fluorescence (ex380/em460) was measured following another short incubation and 30 min incubation. The increased concentration of NMN was determined from a calibration curve obtained at the time of experiment.
Measured Attribute: EC50

Below, 10 molecules whose answers are already recorded.
CCOC(=O)c1ccc(NC(=O)NCc2cncn2C)cc1 > 20000 nM
O=C(NCc1cnco1)Nc1ccc(S(=O)(=O)NCc2ccccc2)cc1 100 to 2000 nM
O=C(NCc1cn[nH]c1)Nc1ccc(NS(=O)(=O)Cc2ccccc2)cc1 < 100 nM
COc1cccc(NC(=O)c2ccc(NC(=O)NCc3cn[nH]c3)cc2)c1 100 to 2000 nM
CCOC(=O)c1ccc(NC(=O)NCc2cnc[nH]2)cc1 > 20000 nM
COc1ccc(S(=O)(=O)c2ccc(NC(=O)NCc3cn[nH]c3)cc2)cc1 < 100 nM
CCOC(=O)c1ccc(NC(=O)NCc2cocn2)cc1 > 20000 nM
O=C(NCc1cnco1)Nc1ccc(S(=O)(=O)c2ccccc2)cc1 < 100 nM
O=C(NCc1cn[nH]c1)Nc1ccc(S(=O)(=O)N2CCc3ccccc3C2)cc1 < 100 nM
Cc1noc(C)c1CNC(=O)Nc1ccc(S(=O)(=O)N2CCc3ccccc3C2)cc1 > 20000 nM

Quick note, EC50 for O=C(NCc1cn[nH]c1)Nc1ccc(S(=O)(=O)c2ccc(Cl)cc2)cc1 landed at < 100 nM

Value of measured EC50 for the entry CCOC(=O)c1ccc(NC(=O)NCc2cn(Cc3ccc(OC)cc3)nn2)cc1 : > 20000 nM

Form field EC50, entry CCOC(=O)c1ccc(NC(=O)NCc2cc[nH]n2)cc1 : > 20000 nM

Lab book: EC50 of COc1ccc(CNS(=O)(=O)c2ccc(NC(=O)NCc3cn[nH]c3)cc2)cc1 noted as < 100 nM

Record CCOC(=O)c1ccc(NC(=O)NCc2cnn(C)c2)cc1 , field EC50: > 20000 nM

The reported value for CCOC(=O)c1ccc(NC(=O)NCc2c[nH]nn2)cc1 in terms of EC50 is > 20000 nM

----------
Here, each record is paired with measured EC50 data.
Target: NAMPT enzyme (Homo sapiens (Human), UniProt P43490)
Experiment: Enzyme Assay and NMN Detection (NAMPT reaction, fluorescence detection of NMN)
Assay type: biochemical
Conditions: Table B-6; NAMPT activation, NMN formation

Known EC50 results, listed for orientation:
Cn1nc(-c2ccc(NC(=O)NCc3ccncc3)cc2)c2cc(F)ccc21 100 to 2000 nM
COc1ccccc1CS(=O)(=O)Nc1ccc(NC(=O)NCc2ccncc2)cc1 100 to 2000 nM
O=C(NCc1ccncc1)Nc1ccc(S(=O)(=O)c2cncs2)cc1 100 to 2000 nM

// sample O=C(NCc1ccncc1)Nc1ccc(Nc2ncc(-c3ccccc3)s2)cc1 , its EC50 was 5000 to 20000 nM

----------
Target: NAMPT enzyme (Homo sapiens (Human), UniProt P43490)
Experiment: Enzyme Assay and NMN Detection (NAMPT reaction, fluorescence detection of NMN)
Format: biochemical
Conditions: Table B-2; NAMPT activation, NMN formation
A collection of compounds and their measured EC50

O=C(NCc1ccncc1)Nc1ccc(C(=O)Nc2cccc(Cl)c2)cc1 100 to 2000 nM
COc1ccccc1CNC(=O)c1ccc(NC(=O)NCc2ccncc2)cc1 > 20000 nM
O=C(NCc1ccncc1)Nc1ccc(C(=O)NC2CCCC2)cc1 5000 to 20000 nM
N#Cc1ccc(NC(=O)c2ccc(NC(=O)NCc3ccncc3)cc2)cc1 100 to 2000 nM

Lab note: measured EC50 of O=C(NCc1ccncc1)Nc1ccc(C(=O)N2CCCCC2)cc1 was 5000 to 20000 nM

Note to self: EC50 recorded for O=C(NCc1ccncc1)Nc1ccc(C(=O)NCc2ccccc2Cl)cc1 was > 20000 nM

O=C(NCc1ccncc1)Nc1ccc(S(=O)(=O)NCC2CCC2)cc1 yielded EC50 of 100 to 2000 nM

Note to self: EC50 recorded for CCN(CC)C(=O)c1ccc(NC(=O)NCc2ccncc2)cc1 was > 20000 nM

compound CC(C)N(c1ccc(NC(=O)NCc2ccncc2)cc1)S(=O)(=O)Cc1ccccc1 , EC50 observed: 2000 to 5000 nM

Lab book: EC50 of Cc1ccccc1CN(C)S(=O)(=O)c1ccc(NC(=O)NCc2ccncc2)cc1 noted as < 100 nM

The recorded EC50 for O=C(NCc1ccncc1)Nc1ccc(S(=O)(=O)N2CCNCC2)cc1 is 5000 to 20000 nM

Measured EC50, COc1ccccc1CN(C)S(=O)(=O)c1ccc(NC(=O)NCc2ccncc2)cc1 : < 100 nM

Data point: N#Cc1ccc(CNS(=O)(=O)c2ccc(NC(=O)NCc3ccncc3)cc2)cc1 ; EC50 = 100 to 2000 nM

Lab book: EC50 of O=C(NCc1ccncc1)Nc1ccc(S(=O)(=O)NC2CCC2)cc1 noted as 100 to 2000 nM

Summary for this compound, O=C(NCc1ccncc1)Nc1ccc(C(=O)NCc2cccc(Cl)c2)cc1 : EC50 is > 20000 nM

----------
Biological target: NAMPT enzyme (Homo sapiens (Human), UniProt P43490)
Experiment: Enzyme Assay and NMN Detection (NAMPT reaction, fluorescence detection of NMN)
Type: biochemical
Conditions: Table B-2; NAMPT activation, NMN formation
Entries and their EC50

Example results:
O=C(NCc1ccncc1)Nc1ccc(C(=O)Nc2ccc3c(c2)OCO3)cc1 5000 to 20000 nM
Cc1ccccc1CNC(=O)c1ccc(NC(=O)NCc2ccncc2)cc1 100 to 2000 nM
CN(c1ccc(NC(=O)NCc2ccncc2)cc1)S(=O)(=O)c1ccccc1 100 to 2000 nM

Reported EC50 of O=C(NCc1ccncc1)Nc1ccc(S(=O)(=O)N2CCc3cccc(C(F)(F)F)c3C2)cc1 : 100 to 2000 nM

Lab note: measured EC50 of CC(C)N(Cc1ccccc1)S(=O)(=O)c1ccc(NC(=O)NCc2ccncc2)cc1 was < 100 nM
